- Test system: A549
- Test summary: Cytotoxicity against human A549 cells after 48 hrs by MTT assay
- Format: functional, cell-based
- Particulars: A549, 48 h
Quantity measured: IC50 (µM)
Return type: number; implicit unit µM.

Examples with answers:
[[record]]
compound = "O=C(C[n+]1cn(Cc2cc3ccccc3o2)c2ccccc21)c1ccc(Br)cc1"
quantity_measured = "IC50"
meas_value = 2.54

[[record]]
compound = "Brc1ccccc1C[n+]1cn(Cc2cc3ccccc3o2)c2ccccc21"
quantity_measured = "IC50"
meas_value = 2.63

[[record]]
compound = "CCc1n(Cc2cc3ccccc3o2)cc[n+]1CC(=O)c1ccc2ccccc2c1"
quantity_measured = "IC50"
meas_value = 7.44

[[record]]
compound = "Cc1n(Cc2cc3ccccc3o2)cc[n+]1CC(=O)c1ccc2ccccc2c1"
quantity_measured = "IC50"
meas_value = 4.97


Reported IC50 ( O=C(C[n+]1ccn(Cc2cc3ccccc3o2)c1)c1ccc2ccccc2c1 ) = 9.95

Reported IC50 ( Cc1n(Cc2cc3ccccc3o2)cc[n+]1C(C(=O)c1ccccc1)c1ccccc1 (configuration not stated) ) = 14.8

Reported IC50 ( COc1ccc(C(=O)C[n+]2cn(Cc3cc4ccccc4o3)c3ccccc32)cc1 ) = 7.18

Reported IC50 ( O=C(C[n+]1cn(Cc2cc3ccccc3o2)c2ccccc21)c1ccc2ccccc2c1 ) = 6.73

---

- Tested on: A549
- Test summary: Cytotoxicity against human A549 cells after 48 hrs by MTT assay
- Format: functional, cell-based
- Particulars: A549, 48 h
Recorded log10 of IC50, one value per entry.
All values: base-10 log of IC50 in µM.

Examples with answers:
[[record]]
compound = "O=C(c1ccccc1)C(c1ccccc1)[n+]1cn(Cc2cc3ccccc3o2)c2ccccc21 (stereo unspecified)"
quantity_measured = "log10 of IC50"
meas_value = 1.10

[[record]]
compound = "COc1ccc(C(=O)C[n+]2ccn(Cc3cc4ccccc4o3)c2C)cc1"
quantity_measured = "log10 of IC50"
meas_value = -0.43

[[record]]
compound = "CCc1n(Cc2cc3ccccc3o2)cc[n+]1CC(=O)c1ccc(OC)cc1"
quantity_measured = "log10 of IC50"
meas_value = 0.05


Reported log10 of IC50 ( O=C(C[n+]1ccn(Cc2cc3ccccc3o2)c1)c1ccc(Br)cc1 ) = 1.09

Reported log10 of IC50 ( Cc1n(Cc2cc3ccccc3o2)cc[n+]1Cc1ccccc1Br ) = 0.47

---

- Test system: A549
- Test summary: Cytotoxicity against human A549 cells after 48 hrs by MTT assay
- Type: functional, cell-based
- Particulars: A549, 48 h
pIC50: −log10 of the molar value.
Recorded pIC50, one value per entry.

Examples with answers:
[[record]]
compound = "COc1ccc(C(=O)C[n+]2ccn(Cc3cc4ccccc4o3)c2)cc1"
test_system = "A549"
meas_value = "< 4.40"

[[record]]
compound = "C=CC[n+]1ccn(Cc2cc3ccccc3o2)c1C"
test_system = "A549"
meas_value = "< 4.40"

[[record]]
compound = "c1ccc2oc(Cn3ccnc3)cc2c1"
test_system = "A549"
meas_value = "< 4.40"

[[record]]
compound = "CCc1n(Cc2cc3ccccc3o2)cc[n+]1CC(=O)c1ccc(Br)cc1"
test_system = "A549"
meas_value = 4.59

[[record]]
compound = "CCc1n(Cc2cc3ccccc3o2)cc[n+]1C(C(=O)c1ccccc1)c1ccccc1 (stereo unspecified)"
test_system = "A549"
meas_value = 4.99


Record for CCc1nccn1Cc1cc2ccccc2o1 under target or system A549: pIC50 reported as < 4.40

---

- Test system: MCF7
- Test summary: Cytotoxicity against human MCF7 cells after 48 hrs by MTT assay
- Type: functional, cell-based
- Particulars: MCF7, 48 h
pIC50: −log10 of the molar value.
Rule: label 1 for pIC50 not less than 5, label 0 for anything less.

Worked set:
[[record]]
compound = "O=C(C[n+]1ccn(Cc2cc3ccccc3o2)c1)c1ccccc1"
group = "label 0"

[[record]]
compound = "CCCC[n+]1cn(Cc2cc3ccccc3o2)c2ccccc21"
group = "label 0"

[[record]]
compound = "Brc1ccccc1C[n+]1ccn(Cc2cc3ccccc3o2)c1"
group = "label 0"

[[record]]
compound = "O=C(C[n+]1cn(Cc2cc3ccccc3o2)c2ccccc21)c1ccc(O)cc1"
group = "label 0"

[[record]]
compound = "Cc1nccn1Cc1cc2ccccc2o1"
group = "label 0"


### Prompt Given C=CC[n+]1ccn(Cc2cc3ccccc3o2)c1 , state whether its pIC50 is at least 5.
### Response label 0

### Prompt Given CCc1n(Cc2cc3ccccc3o2)cc[n+]1C(C(=O)c1ccccc1)c1ccccc1 (configuration not stated) , state whether its pIC50 is at least 5.
### Response label 1

### Prompt Given CCc1n(Cc2cc3ccccc3o2)cc[n+]1CC(=O)c1ccc2ccccc2c1 , state whether its pIC50 is at least 5.
### Response label 1

### Prompt Given C=CC[n+]1ccn(Cc2cc3ccccc3o2)c1C , state whether its pIC50 is at least 5.
### Response label 0

### Prompt Given O=C(C[n+]1ccn(Cc2cc3ccccc3o2)c1)c1ccc(Br)cc1 , state whether its pIC50 is at least 5.
### Response label 0

---

- Tested on: MCF7
- Test summary: Cytotoxicity against human MCF7 cells after 48 hrs by MTT assay
- Assay type: functional, cell-based
- Particulars: MCF7, 48 h
Quantity measured: pIC50
Please report pIC50 as the negative decimal logarithm of the molar concentration, giving only the number.

Examples with answers:
[[record]]
compound = "O=C(c1ccccc1)C(c1ccccc1)[n+]1cn(Cc2cc3ccccc3o2)c2ccccc21 (stereo unspecified)"
quantity_measured = "pIC50"
meas_value = 5.01

[[record]]
compound = "Cc1n(Cc2cc3ccccc3o2)cc[n+]1Cc1ccccc1Br"
quantity_measured = "pIC50"
meas_value = 5.65

[[record]]
compound = "O=C(C[n+]1cn(Cc2cc3ccccc3o2)c2ccccc21)c1ccc(Br)cc1"
quantity_measured = "pIC50"
meas_value = 5.61

[[record]]
compound = "O=C(C[n+]1cn(Cc2cc3ccccc3o2)c2ccccc21)c1ccc2ccccc2c1"
quantity_measured = "pIC50"
meas_value = 5.43


Next:
Reported pIC50 ( Cc1n(Cc2cc3ccccc3o2)cc[n+]1CC(=O)c1ccc2ccccc2c1 ) = 5.96

---

- Tested on: A549
- Test summary: Cytotoxicity against human A549 cells after 48 hrs by MTT assay
- Assay type: functional, cell-based
- Particulars: A549, 48 h
pIC50: −log10 of the molar value.
Recorded pIC50, one value per entry.

Examples with answers:
[[record]]
smiles_repr = "O=C(C[n+]1cn(Cc2cc3ccccc3o2)c2ccccc21)c1ccccc1"
meas_value = "< 4.40"

[[record]]
smiles_repr = "CCCC[n+]1cn(Cc2cc3ccccc3o2)c2ccccc21"
meas_value = "< 4.40"

[[record]]
smiles_repr = "Cc1nccn1Cc1cc2ccccc2o1"
meas_value = "< 4.40"

[[record]]
smiles_repr = "O=C(C[n+]1cn(Cc2cc3ccccc3o2)c2ccccc21)c1ccc(O)cc1"
meas_value = "< 4.40"

[[record]]
smiles_repr = "Brc1ccccc1C[n+]1ccn(Cc2cc3ccccc3o2)c1"
meas_value = "< 4.40"


Next:
Reported pIC50 ( CCc1n(Cc2cc3ccccc3o2)cc[n+]1CC(=O)c1ccccc1 ) = < 4.40

Data provenance is ChEMBL document CHEMBL2429764.
